assay.summary: protease stability score; higher = more stable; yeast display proteolysis, trypsin and chymotrypsin;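 note: log10 excess protease needed over predicted unfolded state with 0 meaning unfolded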
Label criterion met for high-side protease stability score (at or above 0.6) and criterion not met for low-side protease stability score (below it).

q: Check this sequence for protease stability score at or above 0.6: `DEEELSQVVRKVIEALRTGDPDLFQKLADPNAKASVGDKSVHGKEEISSLQKEFSDRVDEIKFTHVSFENGHATIHMELNHNGRHDKVVVKIDVENGKIKHVQIEKS`
a: criterion met

q: In plain terms: is recorded protease stability score at least 0.6 for `EDELRDQFKRFMNAWERGDPDKLRSLVDPNAEVVVGDKVYHGMTHAADEIVRHMKESRYTIKIESINVNGDNIEVTARVTADHNGKPQDASFHASARLENGHVTSMEVQIRE` ?
a: criterion met

q: Please check the record `DETKVKKLAETVIKILFSGDKKTAKDLLKPNVKFEALDVELHGPDQVRKYYDKVKKHGAEMHVQRNEVKGNTAEVEYVLKVGGTEIKVKATLYVKDEKVDKAEVNNSEEYKKYVQKG` and state if its protease stability score is at or above 0.6.
a: criterion not met

q: Hi, just wondering whether `DEEEADKVAKDFNRMLTKGDEHRASQLFDENATVVVGDKTVHGTESIKKIIHEIHRKADHIEIDSVKNRGNKVQVDLHQDINGTRERYVFHVSFHNGRIKYAEINQD` shows protease stability score of 0.6 or higher.
a: criterion not met

q: Hi team, for `DEEANDLFRQIQTAENDNNPDEITELFDENATFRVGDRVIKGREKYAHKVVENLQKWRFTWDRIDVKARNGHARVTIRMTFNVNGKPDSYQAVMHLQFSNGRVQEIHMDIDPRKAKELLK` , is the recorded protease stability score at or above 0.6?
a: criterion not met

q: Does `DEDHRERLANHAVEAFQDGDPQQMEELADEDARAEVGDKELTGRERISKMVKTIADNVDHIELKSYEKTGDTVRFHMVLDDNGKQKRLVLVVRIHNGRLKELRIQQS` have a reported protease stability score of at least 0.6?
a: criterion met

q: Identify whether the reported protease stability score of the following sequence is 0.6 or greater: `DQEAHRVFNEFIKAITTGNPDRARQLADPNARFQVGDKRYHGMERYASTLKQQQNKMTQSLRVRDVDVKGDKIKVDAQSEMNHNGQPRRSQHNIDVNIQGDKIKRVRYTDDK`
a: criterion not met

q: Is reported protease stability score greater than or equal to 0.6 here: `DDHRAHQMAEFVIDAIRTGDPDKFVNQADENVRVVIGDKQVQGHEEAREALKSLKDQADHVSLTDFRVHGDKVEVVFEARVNGVDLVMKVYARIHNGHLVMMSIDVTDPRKQKKADS`
a: criterion met

q: Reported protease stability score reaches at least 0.6 for `DDEMKKVVSRFVEAEKQGNPEDLKRNADPNVKVQVGDKTVNGRDKWATDLHKRRRDIDVEREYKSVHLTGDHLTMDVEAVYNVNGTPHKMRVTLRVVAHNGKIKKMHVQLSEEELRRLDR` ?
a: criterion not met

q: Identify whether the reported protease stability score of the following sequence is 0.6 or greater: `DETEAKKNVEVVEQNDWDTFEDQVDENAKMKVGDKEIHGREQFSEFADNMKKNADHVEVKSVDRRGDEINIEMVVSVNGKRVTYVVQFVVNNGKIHDVQFDARSEDDERFLKEVQS`
a: criterion met
